assay: Cmax in patient with solid tumor at 15 mg, po bid by LC-MS/MS analysis; format: ADME, organism-based; parameters: dose 15 mg, route oral; conditions: human, in vivo
Measured parameter: Cmax (ng/mL)
One number for each entry, in ng/mL.

Ask: Indicate the recorded Cmax value for this compound: CN(C)CCCOc1ccc(-c2ccc3ncc4c(c3c2)n(C2CCOCC2)c(=O)n4C)cn1
Reply: 6.67

---

assay: Intrinsic clearance in rat hepatocytes assessed per million cells
Measured parameter: hepatocyte CLint

Use these answered entries as a reference point.
1. CO[C@H]1C[C@@H](n2c(=O)n(C)c3cnc4cc(F)c(-c5ccc(OCCN(C)C)nc5)cc4c32)C1    12 µL/min/1e6 cells
2. CO[C@H]1C[C@@H](n2c(=O)n(C)c3cnc4cc(F)c(-c5ccc(NCCN(C)C)nc5)cc4c32)C1    9.6 µL/min/1e6 cells
3. CNCCCOc1ccc(-c2ccc3ncc4c(c3c2)n([C@H]2C[C@@H](OC)C2)c(=O)n4C)cn1    4.8 µL/min/1e6 cells

Please find the next compound below.
Ask: Please give the documented hepatocyte CLint of CO[C@H]1C[C@@H](n2c(=O)n(C)c3cnc4cc(F)c(-c5ccc(N(C)CCN(C)C)nc5)cc4c32)C1
Reply: 18 µL/min/1e6 cells

---

biological target: Cytochrome P450 3A4 (Homo sapiens)
Sequence (P08684 whole entry): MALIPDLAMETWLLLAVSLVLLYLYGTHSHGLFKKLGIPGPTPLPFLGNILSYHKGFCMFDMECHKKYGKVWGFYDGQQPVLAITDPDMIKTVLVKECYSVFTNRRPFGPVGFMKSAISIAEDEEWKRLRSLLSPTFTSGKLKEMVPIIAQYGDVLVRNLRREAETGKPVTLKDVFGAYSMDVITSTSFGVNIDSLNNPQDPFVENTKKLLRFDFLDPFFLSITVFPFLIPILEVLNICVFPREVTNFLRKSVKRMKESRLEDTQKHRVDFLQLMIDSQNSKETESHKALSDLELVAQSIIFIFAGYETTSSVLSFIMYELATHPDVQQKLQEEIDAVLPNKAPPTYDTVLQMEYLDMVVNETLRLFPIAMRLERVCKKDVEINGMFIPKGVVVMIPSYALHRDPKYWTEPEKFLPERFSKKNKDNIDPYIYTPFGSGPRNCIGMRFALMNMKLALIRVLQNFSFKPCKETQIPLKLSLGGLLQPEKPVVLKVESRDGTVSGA
pIC50: −log10 of the molar value.
Measured parameter: pIC50

Ask: Fill in reported pIC50 for this entry: CN(C)CCCOc1ccc(-c2ccc3ncc4c(c3c2)n(C2CCOCC2)c(=O)n4C)cn1
Reply: < 4.52

---

test: Tmax in patient with solid tumor at 30 mg, po bid by LC-MS/MS analysis; assay type: ADME, organism-based; conditions: human, in vivo
Measured parameter: Tmax
Param answer (str): number followed by unit.

Ask: Quote Tmax reported for CN(C)CCCOc1ccc(-c2ccc3ncc4c(c3c2)n(C2CCOCC2)c(=O)n4C)cn1 please.
Reply: 2 h

---

assay: Tmax in patient with solid tumor at 15 mg, po bid by LC-MS/MS analysis; assay type: ADME, organism-based; conditions: human, in vivo
Measured parameter: Tmax
Dear colleague, please send the value followed by its unit.

Ask: # return recorded Tmax for input CN(C)CCCOc1ccc(-c2ccc3ncc4c(c3c2)n(C2CCOCC2)c(=O)n4C)cn1
Reply: 2 h

---

test: Cmax in patient with solid tumor at 120 mg, po bid by LC-MS/MS analysis; type: ADME, organism-based; design: dose 120 mg, route oral; details: human, in vivo
Measured parameter: Cmax (ng/mL)
Answers are plain numbers, in ng/mL.

Ask: Determine from records and report Cmax for CN(C)CCCOc1ccc(-c2ccc3ncc4c(c3c2)n(C2CCOCC2)c(=O)n4C)cn1
Reply: 58.8

---

assay: Apparent permeability across apical to basolateral side in MDCK cells overexpressing MDR1; assay type: ADME, cell-based, Canis lupus familiaris; conditions: dog
Would you kindly list Papp A→B for each of these molecules?
Numbers only, in ×10⁻⁶ cm/s.

1. CN(C)CCCOc1ccc(-c2ccc3ncc4c(c3c2)n(C2CCOCC2)c(=O)n4C)cn1    6.6
2. CO[C@H]1C[C@@H](n2c(=O)n(C)c3cnc4cc(F)c(-c5ccc(N(C)CCN(C)C)nc5)cc4c32)C1    6.3

Working through the 8 molecules below one at a time, give Papp A→B for each.
1. CO[C@H]1C[C@@H](n2c(=O)n(C)c3cnc4ccc(-c5ccc(OCCCN6CCC6)nc5)cc4c32)C1
2. COCc1ccc(-c2cc3c(cc2F)ncc2c3n([C@H]3C[C@@H](OC)C3)c(=O)n2C)cn1
3. COCc1ccc(-c2cc3c(cc2F)ncc2c3n([C@H]3C[C@H](OC)C3)c(=O)n2C)cn1
4. CO[C@H]1C[C@@H](n2c(=O)n(C)c3cnc4ccc(-c5ccc(OCCCN6CCCCC6)nc5)cc4c32)C1
5. CO[C@H]1C[C@@H](n2c(=O)n(C)c3cnc4cc(F)c(-c5ccc(C(=O)NCCN(C)C)nc5)cc4c32)C1
6. COCc1ccc(-c2cc3c(cc2F)ncc2c3n([C@@H](C)C3CCOCC3)c(=O)n2C)cn1
7. CNCCCOc1ccc(-c2ccc3ncc4c(c3c2)n([C@H]2C[C@@H](OC)C2)c(=O)n4C)cn1
8. CO[C@H]1C[C@@H](n2c(=O)n(C)c3cnc4ccc(-c5ccc(OCCCN(C)C)nc5)cc4c32)C1

Reply:
[3.5, 38, 28, 5.4, 2.5, 27, 0.65, 7.8]

---

assay: Thermodynamic solubility of the compound in 0.1M aqueous phosphate buffer at pH 7.4 after 24 hrs by LC-UV analysis; format: physicochemical; details: read-out: Therm_solubility
Measured parameter: log10(solubility thermodynamic at 24 h) (log10 of the value in µM)
Could you please treat all values as log10 of solubility thermodynamic at 24 h in µM?

1) CC(C)n1c(=O)n(C2CCOCC2)c2c3cc(-c4cccnc4)ccc3ncc21    1.61
2) CO[C@H]1C[C@@H](n2c(=O)n(C)c3cnc4cc(F)c(-c5ccc(CO)nc5)cc4c32)C1    1.36
3) COCc1ccc(-c2cc3c(cc2F)ncc2c3n([C@H]3C[C@@H](O)C3)c(=O)n2C)cn1    2.43
4) CO[C@H]1C[C@@H](n2c(=O)n(C)c3cnc4ccc(-c5ccc(OCCCN6CCC(O)CC6)nc5)cc4c32)C1    2.88

Go through the items and report each one's log10(solubility thermodynamic at 24 h).
1. Cn1c(=O)n([C@H]2CCCOC2)c2c3cc(-c4ccc(OCCCN5CCCCC5)nc4)c(F)cc3ncc21
2. CO[C@H]1C[C@@H](n2c(=O)n(C)c3cnc4ccc(-c5ccc(OCCCN6CCOCC6)nc5)cc4c32)C1
3. Cn1c(=O)n(C2CCOCC2)c2c3cc(-c4cccnc4)ccc3ncc21
4. COCc1ccc(-c2cc3c(cc2F)ncc2c3n([C@H]3C[C@H](OC)C3)c(=O)n2C)cn1

Reply:
1. 2.52
2. 2.99
3. 1.23
4. 1.69

Lab note: each compound below needs its log10(solubility thermodynamic at 24 h) filled in.
1. COCc1ccc(-c2ccc3ncc4c(c3c2)n(C2CCOCC2)c(=O)n4C)cn1
2. CO[C@H]1C[C@@H](n2c(=O)n(C)c3cnc4ccc(-c5ccc(OCCCN6CCC6)nc5)cc4c32)C1
3. CO[C@H]1C[C@@H](n2c(=O)n(C)c3cnc4cc(F)c(-c5ccc(C(=O)NCCN(C)C)nc5)cc4c32)C1

Reply:
[1.28, 2.89, 2.99]

---

experiment: Fraction unbound in rat plasma
Measured parameter: fraction unbound
Answers are plain numbers.

Ask: Complete the entry with fraction unbound for CN(C)CCCOc1ccc(-c2ccc3ncc4c(c3c2)n(C2CCOCC2)c(=O)n4C)cn1
Reply: 0.11

---

assay: Apparent permeability across apical to basolateral side in MDCK cells overexpressing MDR1; format: ADME, cell-based, Canis lupus familiaris; conditions: dog
If the reported Papp A→B equals or exceeds 8 ×10⁻⁶ cm/s, assign 1. If not, assign -1.

1) COCc1ccc(-c2ccc3ncc4c(c3c2)n(C2CCOCC2)c(=O)n4C)cn1    1

Ask: // inclusive: Papp A→B at least 8 ×10⁻⁶ cm/s? input: COCc1ccc(-c2cc3c(cc2F)ncc2c3n(C3CCOCC3)c(=O)n2C)cn1
Reply: 1

---

experiment: Intrinsic clearance in human hepatocytes assessed per million cells
Consider the following molecules; for each one, report its hepatocyte CLint.

1. CO[C@H]1C[C@@H](n2c(=O)n(C)c3cnc4ccc(-c5ccc(OCCCN(C)C)nc5F)cc4c32)C1    15 µL/min/1e6 cells
2. Cn1c(=O)n([C@H]2CCCOC2)c2c3cc(-c4ccc(OCCCN5CCCCC5)nc4)c(F)cc3ncc21    4 µL/min/1e6 cells
3. CN(C)CCCOc1ccc(-c2ccc3ncc4c(c3c2)n(C2COC2)c(=O)n4C)cn1    < 1 µL/min/1e6 cells
4. COCc1ccc(-c2cc3c(cc2F)ncc2c3n([C@H]3C[C@@H](O)C3)c(=O)n2C)cn1    2.7 µL/min/1e6 cells
5. CN(C)CCCOc1ccc(-c2ccc3ncc4c(c3n2)n(C2CCOCC2)c(=O)n4C)cn1    12.8 µL/min/1e6 cells
6. CO[C@H]1C[C@@H](n2c(=O)n(C)c3cnc4ccc(-c5ccc(OCCCN6CCC6)nc5)cc4c32)C1    3.3 µL/min/1e6 cells

Your task in this section: give hepatocyte CLint for each listed record.
1. CO[C@H]1C[C@@H](n2c(=O)n(C)c3cnc4ccc(-c5ccc(OCCCN6CCCC6)nc5)cc4c32)C1
2. CO[C@H]1C[C@@H](n2c(=O)n(C)c3cnc4cc(F)c(-c5ccc(OCCCN(C)C)nc5F)cc4c32)C1

Reply:
1. 5.3 µL/min/1e6 cells
2. 14 µL/min/1e6 cells

---

experiment: Buffer/octanol partition coefficient, log D of the compound at pH 7.4 by shake flask method; format: physicochemical
For each entry below, report its logD value.
Answers are plain numbers.

1) CN(C)CCCOc1ccc(-c2ccc3ncc4c(c3c2)n(C2COC2)c(=O)n4C)cn1    0.7
2) CO[C@H]1C[C@@H](n2c(=O)n(C)c3cnc4ccc(-c5ccc(OCCCN6CCCCC6)nc5)cc4c32)C1    2.2
3) CN(C)CCCOc1ccc(-c2ccc3ncc4c(c3c2)n([C@@H]2CCCOC2)c(=O)n4C)cn1    1.8

Now for a further molecule.
Ask: Supply measured logD of Cn1c(=O)n([C@H]2CCCOC2)c2c3cc(-c4ccc(OCCCN5CCCCC5)nc4)c(F)cc3ncc21 in your reply.
Reply: 2.4
